# MEASUREMENT TARGET: Myelin-associated glycoprotein (Mus musculus, UniProt P20917)
# Sequence (P20917 whole entry): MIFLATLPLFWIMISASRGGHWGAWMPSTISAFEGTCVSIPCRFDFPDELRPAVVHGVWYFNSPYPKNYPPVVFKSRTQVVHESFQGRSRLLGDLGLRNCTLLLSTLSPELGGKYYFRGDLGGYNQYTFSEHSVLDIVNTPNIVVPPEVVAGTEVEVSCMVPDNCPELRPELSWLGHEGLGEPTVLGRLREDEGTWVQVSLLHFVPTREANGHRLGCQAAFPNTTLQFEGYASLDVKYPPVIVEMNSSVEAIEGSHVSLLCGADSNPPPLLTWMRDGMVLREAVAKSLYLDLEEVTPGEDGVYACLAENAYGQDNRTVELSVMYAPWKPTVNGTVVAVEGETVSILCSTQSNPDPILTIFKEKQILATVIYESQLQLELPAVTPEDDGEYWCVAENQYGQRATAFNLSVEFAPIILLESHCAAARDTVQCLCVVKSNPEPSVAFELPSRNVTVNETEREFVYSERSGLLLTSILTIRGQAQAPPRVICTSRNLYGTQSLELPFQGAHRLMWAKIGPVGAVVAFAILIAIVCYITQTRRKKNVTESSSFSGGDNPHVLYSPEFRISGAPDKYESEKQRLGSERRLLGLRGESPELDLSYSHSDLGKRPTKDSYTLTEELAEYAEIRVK
METRIC NAME: Kd (nM)
Field format: number, assumed nM, no unit text.

Need Kd of O=C(CF)N[C@H]1[C@H]([C@H](O)[C@H](O)CNC(=O)c2ccc(Cl)cc2)O[C@@](OCc2cccc(F)c2F)(C(=O)O)C[C@@H]1O , thanks.
500
